Test system: Sagittaria pygmaea, L.
Experiment: Preemergence weed control under flooded paddy conditions, SAGPY (Arrowhead (Pygmaea)); also: meaning of each grade not given here
Assay type: in vivo
Settings: Rate 0.1250 kg/ha; preemergence weeds, flooded paddy; rated three to four weeks after treatment
// reported herbicidal effect rating, SAGPY for each item listed
readout-type: herbicidal effect rating, SAGPY

• COc1ccc(OC)c(-c2nsc3ccc(-n4c(=O)cc(C(F)(F)F)n(C)c4=O)cc23)c1 [Example 333] = 8.5
• COC(=O)C(C)Oc1ccc(OC)cc1-c1nsc2ccc(-n3c(=O)cc(C(F)(F)F)n(C)c3=O)cc12 (centres unmarked) [Example 348] = 7.0
• CC(Br)c1nsc2ccc(-n3c(=O)cc(C(F)(F)F)n(C)c3=O)cc12 (centres unmarked) [Example 339] = 5.0
• CCOc1cccc(-c2nsc3ccc(-n4c(=O)cc(C(F)(F)F)n(C)c4=O)cc23)c1 [Example 327] = 5.5
• CN(O)C(=O)COc1ccccc1-c1nsc2ccc(-n3c(=O)cc(C(F)(F)F)n(C)c3=O)cc12 [Example 336] = 1.0
• C#CCOC(=O)COc1cccc(-c2nsc3ccc(-n4c(=O)cc(C(F)(F)F)n(C)c4=O)cc23)c1 [Example 326] = 5.5
• Cn1c(C(F)(F)F)cc(=O)n(-c2ccc3snc(C(=O)NS(C)(=O)=O)c3c2)c1=O [Example 323] = 3.5
• Cn1c(C(F)(F)F)cc(=O)n(-c2ccc3snc(C(=O)Nc4cc(C(C)(C)C)on4)c3c2)c1=O [Example 331] = 0.0
• CNC.Cn1c(C(F)(F)F)cc(=O)n(-c2ccc3snc(CSCC(=O)O)c3c2)c1=O [Example 299] = 3.0
• Cn1c(C(F)(F)F)cc(=O)n(-c2ccc3snc(C(=O)NS(=O)(=O)Cc4ccccc4)c3c2)c1=O [Example 341] = 4.5
• Cc1ccc(OCC(=O)NO)c(-c2nsc3ccc(-n4c(=O)cc(C(F)(F)F)n(C)c4=O)cc23)c1 [Example 313] = 0.0
• Cn1c(C(F)(F)F)cc(=O)n(-c2ccc3snc(CSCC(=O)NS(C)(=O)=O)c3c2)c1=O [Example 297] = 3.0
• CC(C)NC(=O)c1nsc2ccc(-n3c(=O)cc(C(F)(F)F)n(C)c3=O)cc12 [Example 330] = 0.0
• Cn1c(C(F)(F)F)cc(=O)n(-c2ccc3snc(C(=O)NS(=O)(=O)CCl)c3c2)c1=O [Example 324] = 9.0
• COc1ccc(C)cc1-c1noc2cc(F)c(-n3c(=O)cc(C(F)(F)F)n(C)c3=O)cc12 [Example 345] = 9.0
• Cn1c(C(F)(F)F)cc(=O)n(-c2ccc3snc(C(=O)CCl)c3c2)c1=O [Example 338] = 2.0
• Cn1c(C(F)(F)F)cc(=O)n(-c2ccc3snc(C(C)(Br)Br)c3c2)c1=O [Example 340] = 5.0

---

System: Oryza sativa, (L.) Tebonnet
Test: Rice tolerance to post-transplant applications under flooded paddy conditions (Example 187), ORYSAT (Rice, Tebonnet); also: meaning of each grade not given here
Conditions: Rate 0.0620 kg/ha, rated three to four weeks after treatment
readout-type: herbicidal effect rating ORYSAT

• CONC(=O)COc1ccc(C)cc1-c1nsc2ccc(-n3c(=O)cc(C(F)(F)F)n(C)c3=O)cc12 = 4.0
• Cn1c(C(F)(F)F)cc(=O)n(-c2ccc3snc(C(C#N)=Cc4ccc[nH]4)c3c2)c1=O = 0.0
• Cn1c(C(F)(F)F)cc(=O)n(-c2ccc3snc(/C=C/CBr)c3c2)c1=O = 2.0
• COC(=O)c1nsc2ccc(-n3c(=O)cc(C(F)(F)F)n(C)c3=O)cc12 = 5.0
• Cn1c(C(F)(F)F)cc(=O)n(-c2ccc3snc(C(=O)NS(=O)(=O)CCl)c3c2)c1=O [Example 334] = 0.0
• COC(=O)COc1ccc(OC)cc1-c1nsc2ccc(-n3c(=O)cc(C(F)(F)F)n(C)c3=O)cc12 = 6.0
• Cn1c(C(F)(F)F)cc(=O)n(-c2ccc3snc(COCc4cccc([N+](=O)[O-])c4)c3c2)c1=O = 3.0
• C=CCC(C#N)(CC=C)c1nsc2ccc(-n3c(=O)cc(C(F)(F)F)n(C)c3=O)cc12 = 4.0
• Cn1c(C(F)(F)F)cc(=O)n(-c2ccc3snc(COCc4ccc(Cl)cc4Cl)c3c2)c1=O = 1.5
• C#CCOC(=O)COc1ccc(OC)cc1-c1nsc2ccc(-n3c(=O)cc(C(F)(F)F)n(C)c3=O)cc12 = 5.0
• Cn1c(C(F)(F)F)cc(=O)n(-c2ccc3snc(-c4ccccc4OCC(=O)NS(=O)(=O)CCl)c3c2)c1=O = 5.0
• Cn1c(C(F)(F)F)cc(=O)n(-c2ccc3snc(-c4ccccc4OCC(=O)O)c3c2)c1=O = 6.5
• COC(=O)C(C)Oc1ccc(OC)cc1-c1nsc2ccc(-n3c(=O)cc(C(F)(F)F)n(C)c3=O)cc12 (stereo not drawn) = 3.0
• Cn1c(C(F)(F)F)cc(=O)n(-c2ccc3snc(C(N)=O)c3c2)c1=O = 5.0
• Cn1c(C(F)(F)F)cc(=O)n(-c2ccc3snc(C(C#N)=Cc4cc5ccccc5[nH]4)c3c2)c1=O = 5.0
• Cn1c(C(F)(F)F)cc(=O)n(-c2ccc3snc(CN(C(=O)OC(C)(C)C)S(C)(=O)=O)c3c2)c1=O = 2.0
• CCOP(=O)(Cc1nsc2cc(F)c(-n3c(=O)cc(C(F)(F)F)n(C)c3=O)cc12)OCC = 6.5
• Cn1c(C(F)(F)F)cc(=O)n(-c2ccc3snc(C(C#N)=Cc4ccc(O)cc4)c3c2)c1=O = 3.0
• COc1ccc(C)cc1-c1noc2cc(F)c(-n3c(=O)cc(C(F)(F)F)n(C)c3=O)cc12 = 5.5
• CC(C)Oc1cccc(-c2nsc3ccc(-n4c(=O)cc(C(F)(F)F)n(C)c4=O)cc23)c1 = 3.0
• Cc1ccc(OC(C)C(=O)NS(C)(=O)=O)c(-c2nsc3ccc(-n4c(=O)cc(C(F)(F)F)n(C)c4=O)cc23)c1 (stereo not drawn) = 1.0
• CNC(=O)OCc1nsc2ccc(-n3c(=O)cc(C(F)(F)F)n(C)c3=O)cc12 = 4.0
• CCCCCCCCCCCCS(=O)(=O)NC(=O)c1nsc2ccc(-n3c(=O)cc(C(F)(F)F)n(C)c3=O)cc12 = 3.0
• Cc1ccc(C=C(C#N)c2nsc3ccc(-n4c(=O)cc(C(F)(F)F)n(C)c4=O)cc23)cc1 = 0.0
• CN(C)C(=O)c1nsc2ccc(-n3c(=O)cc(C(F)(F)F)n(C)c3=O)cc12 = 3.0
• CC(c1nsc2ccc(-n3c(=O)cc(C(F)(F)F)n(C)c3=O)cc12)S(C)(=O)=O (stereo not drawn) = 5.0
• COC(C)c1nsc2ccc(-n3c(=O)cc(C(F)(F)F)n(C)c3=O)cc12 (stereo not drawn) = 9.0
• CCCCS(=O)(=O)NC(=O)COc1ccccc1-c1nsc2ccc(-n3c(=O)cc(C(F)(F)F)n(C)c3=O)cc12 = 4.5
• CC(=O)NCCOC(=O)c1nsc2ccc(-n3c(=O)cc(C(F)(F)F)n(C)c3=O)cc12 = 0.0
• CC/C(C=O)=C\c1nsc2ccc(-n3c(=O)cc(C(F)(F)F)n(C)c3=O)cc12 = 0.0

---

Tested on: Cyperus iria
Assay: Preemergence weed control under flooded paddy conditions, CYPIR (Rice Flatsedge); also: meaning of each grade not given here
Type: in vivo
Conditions: Rate 0.0320 kg/ha; preemergence, flooded paddy; rated three to four weeks after treatment
// reported herbicidal effect rating, CYPIR for each item listed
readout-type: herbicidal effect rating, CYPIR

* C=CCC(C#N)(CC=C)c1nsc2ccc(-n3c(=O)cc(C(F)(F)F)n(C)c3=O)cc12 | 3.0
* Cc1nsc2cc(F)c(-n3c(=O)cc(C(F)(F)F)n(C)c3=O)cc12 | 8.5
* CCOCN(C(=O)c1nsc2ccc(-n3c(=O)cc(C(F)(F)F)n(C)c3=O)cc12)S(C)(=O)=O | 4.0
* Cn1c(C(F)(F)F)cc(=O)n(-c2ccc3snc(C#N)c3c2)c1=O | 6.5
* CCCCS(=O)(=O)NC(=O)COc1ccccc1-c1nsc2ccc(-n3c(=O)cc(C(F)(F)F)n(C)c3=O)cc12 | 2.0
* C=CCONC(=O)c1nsc2ccc(-n3c(=O)cc(C(F)(F)F)n(C)c3=O)cc12 | 0.0
* CC(c1nsc2ccc(-n3c(=O)cc(C(F)(F)F)n(C)c3=O)cc12)S(C)(=O)=O (stereo not shown) | 2.0
* CC(C)C=C(C#N)c1nsc2ccc(-n3c(=O)cc(C(F)(F)F)n(C)c3=O)cc12 | 3.0
* CN(C(=O)c1nsc2ccc(-n3c(=O)cc(C(F)(F)F)n(C)c3=O)cc12)S(C)(=O)=O | 0.0
* Cn1c(C(F)(F)F)cc(=O)n(-c2ccc3snc(COC(=O)Nc4ccccc4)c3c2)c1=O | 3.0
* C=C(Cl)COC(=O)c1nsc2ccc(-n3c(=O)cc(C(F)(F)F)n(C)c3=O)cc12 | 7.0
* Cc1ccc(OC(C)(C)C(=O)NS(C)(=O)=O)c(-c2nsc3ccc(-n4c(=O)cc(C(F)(F)F)n(C)c4=O)cc23)c1 | 0.0
* Cn1c(C(F)(F)F)cc(=O)n(-c2ccc3snc(COCc4ccc([N+](=O)[O-])cc4)c3c2)c1=O | 0.0
* Cn1c(C(F)(F)F)cc(=O)n(-c2ccc3snc(C(Cc4ccccc4)S(C)(=O)=O)c3c2)c1=O (stereo not shown) | 0.0
* COC(C)c1nsc2ccc(-n3c(=O)cc(C(F)(F)F)n(C)c3=O)cc12 (stereo not shown) | 4.0
* Cn1c(C(F)(F)F)cc(=O)n(-c2ccc3snc(COCc4ccc(Cl)c(Cl)c4)c3c2)c1=O | 8.0
* Cn1c(C(F)(F)F)cc(=O)n(-c2ccc3snc(C(C#N)=Cc4ccccc4F)c3c2)c1=O | 1.0
* Cc1ccc(C=C(C#N)c2nsc3ccc(-n4c(=O)cc(C(F)(F)F)n(C)c4=O)cc23)cc1 | 0.0
* Cc1cccc(COCc2nsc3ccc(-n4c(=O)cc(C(F)(F)F)n(C)c4=O)cc23)c1 | 4.0
* Cn1c(C(F)(F)F)cc(=O)n(-c2ccc3snc(CS(=O)(=O)c4ccccc4)c3c2)c1=O | 0.0
* CCSCCOC(=O)c1nsc2ccc(-n3c(=O)cc(C(F)(F)F)n(C)c3=O)cc12 | 4.0
* CCC(C)S(=O)(=O)NC(=O)c1nsc2ccc(-n3c(=O)cc(C(F)(F)F)n(C)c3=O)cc12 (stereo not shown) | 0.0
* Cn1c(C(F)(F)F)cc(=O)n(-c2ccc3snc(C(=O)NS(=O)(=O)c4cccs4)c3c2)c1=O | 3.0
* Cc1ccc(OCC(=O)N(C)O)c(-c2nsc3ccc(-n4c(=O)cc(C(F)(F)F)n(C)c4=O)cc23)c1 | 4.5
* Cn1c(C(F)(F)F)cc(=O)n(-c2ccc3snc(COCc4ccc(Cl)cc4Cl)c3c2)c1=O | 2.5
* Cn1c(C(F)(F)F)cc(=O)n(-c2ccc3snc(COS(C)(=O)=O)c3c2)c1=O | 6.0
* CC(C)S(=O)(=O)OCc1nsc2ccc(-n3c(=O)cc(C(F)(F)F)n(C)c3=O)cc12 | 4.0
* C#CCC(C#N)(CC#C)c1nsc2ccc(-n3c(=O)cc(C(F)(F)F)n(C)c3=O)cc12 | 3.0
* CC/C(C=O)=C\c1nsc2ccc(-n3c(=O)cc(C(F)(F)F)n(C)c3=O)cc12 | 4.0
* CCCCS(=O)(=O)NC(=O)COc1ccc(C)cc1-c1nsc2ccc(-n3c(=O)cc(C(F)(F)F)n(C)c3=O)cc12 | 0.0
* CCC(=O)COC(=O)COc1ccc(C)cc1-c1nsc2ccc(-n3c(=O)cc(C(F)(F)F)n(C)c3=O)cc12 | 2.0

Source listed as patent EP0908457B1.
